assay: Hepatic clearance in rat liver microsomes; assay type: ADME
testReadout: CLhep predicted (mL/min/kg)

1) CNc1nc(NCc2ccc(NS(C)(=O)=O)cc2Cl)cc(-c2ccccn2)n1 ... 41.3
2) CNC(=O)c1ccc(CNc2cc(-c3ccccn3)nc(NC)n2)cc1 ... 31.9
3) CNc1nc(NCc2ccc(NC(C)=O)cc2F)cc(-c2ccccn2)n1 ... 25.9
4) CNc1nc(NCc2ccc(NC(C)=O)cc2)cc(-c2ccccn2)n1 ... 35.9
5) O=S(=O)(NC[C@H]1CC[C@H](CNc2nc(NC3CC3)cc(-c3ccccn3)n2)CC1)c1cccc(F)c1 ... 51.2
